Target: UniProt:P48775
Assay: Cellular assay for TDO2 activity, hTDO2-overexpressing P815 cells
Assay type: cell-based
Set-up: expressed in transfected cells; host or cells: murine mastocytoma P815 cells
Conditions: murine mastocytoma P815 cells overexpressing hTDO2, overnight incubation, kynurenine absorbance at 480 nm
Procedure: The assay was performed in 96-well flat bottom plates seeded with murine mastocytoma P815 cells overexpressing hTDO2 (prepared as described in Pilotte et al., PNAS, 2012, 109(7), 2497-2502), at a concentration of 5×10^4 cells/well in a final volume of 200 μL. […]
The entries below are paired with their reported IC50.

Compound: OC1(Cn2cc(-c3c[nH]c4cc(F)ccc34)cn2)CCOCC1
IC50: 1000 to 10000 nM

Compound: CS(=O)(=O)CCCC(=O)N1CCC(n2cc(-c3c[nH]c4cc(F)ccc34)cn2)CC1
IC50: 1000 to 10000 nM

Compound: NC(=O)C(O)Cn1cc(-c2c[nH]c3cc(F)ccc23)cn1 (centres unmarked)
IC50: < 1000 nM

Compound: O=C(CCO)N1CCC(n2cc(-c3c[nH]c4cc(F)ccc34)cn2)CC1
IC50: < 1000 nM

Compound: CS(=O)(=O)N1CCC(n2cc(-c3c[nH]c4cc(F)ccc34)cn2)CC1
IC50: < 1000 nM

====

Quick reference for IC50 among some compounds
Biological target: UniProt:P48775
Experiment: Assay for TDO2 enzymatic activity determination
Type: biochemical
Set-up: made in house
Conditions: human recombinant TDO2, L-Trp 1 mM, room temperature, one hour, kynurenine absorbance at 480 nm
Endpoint: IC50

Compound: Cc1nn(C)cc1-c1c[nH]c2cc(F)ccc12
Endpoint: IC50
Test Value: 1000 to 10000 nM
--
Compound: Cc1nn(CC2CCNCC2)cc1-c1c[nH]c2cc(F)ccc12
Endpoint: IC50
Test Value: < 1000 nM
--
Compound: CS(=O)(=O)CCC(=O)N1CCC(n2cc(-c3c[nH]c4cc(F)ccc34)cn2)CC1
Endpoint: IC50
Test Value: 1000 to 10000 nM
--
Compound: C=CC(=O)N1CCC(n2cc(-c3c[nH]c4cc(F)ccc34)cn2)CC1
Endpoint: IC50
Test Value: 1000 to 10000 nM
--
Compound: OC1CCC(n2cc(-c3c[nH]c4cc(F)ccc34)cn2)CC1 (centres unmarked)
Endpoint: IC50
Test Value: 1000 to 10000 nM

====

Compound: Fc1cc2[nH]cc(-c3cnn(CC4CCNCC4)c3)c2cc1F [Compound 44]
melting point: 167.1 to 168.9 °C
--
Compound: CS(=O)(=O)CCn1cc(-c2c[nH]c3cc(F)c(F)cc23)cn1 [Compound 32]
melting point: 170.6 to 171.9 °C
--
Compound: Fc1ccc2c(-c3cnn(CC4CCOCC4)c3)c[nH]c2c1 [Compound 58]
melting point: 138.9 to 139.6 °C
--
Compound: NC(=O)CCn1cc(-c2c[nH]c3cc(F)ccc23)cn1 [Compound 7]
melting point: 173.3 to 175 °C
--
Compound: CN(C)CC(=O)N1CCC(n2cc(-c3c[nH]c4cc(F)ccc34)cn2)CC1 [Compound 83]
melting point: 193.7 to 196.1 °C
--
Compound: CC(C)C(=O)N1CCC(n2cc(-c3c[nH]c4cc(F)ccc34)cn2)CC1 [Compound 86]
melting point: 210.2 to 211 °C
--
Compound: CN(C)C(=O)N1CCC(n2cc(-c3c[nH]c4cc(F)ccc34)cn2)CC1 [Compound 90]
melting point: 223 to 224.6 °C
--
Compound: O=C(O)CCC(=O)N1CCC(n2cc(-c3c[nH]c4cc(F)ccc34)cn2)CC1 [Compound 80]
melting point: 226 to 228 °C
--
Compound: O=C(C1CC1)N1CCC(n2cc(-c3c[nH]c4cc(F)ccc34)cn2)CC1 [Compound 88]
melting point: 190.7 to 191.4 °C

====

Entries and their measured IC50 follow.
Molecular target: human TDO2 (Homo sapiens, UniProt P48775)
Sequence (P48775 whole entry): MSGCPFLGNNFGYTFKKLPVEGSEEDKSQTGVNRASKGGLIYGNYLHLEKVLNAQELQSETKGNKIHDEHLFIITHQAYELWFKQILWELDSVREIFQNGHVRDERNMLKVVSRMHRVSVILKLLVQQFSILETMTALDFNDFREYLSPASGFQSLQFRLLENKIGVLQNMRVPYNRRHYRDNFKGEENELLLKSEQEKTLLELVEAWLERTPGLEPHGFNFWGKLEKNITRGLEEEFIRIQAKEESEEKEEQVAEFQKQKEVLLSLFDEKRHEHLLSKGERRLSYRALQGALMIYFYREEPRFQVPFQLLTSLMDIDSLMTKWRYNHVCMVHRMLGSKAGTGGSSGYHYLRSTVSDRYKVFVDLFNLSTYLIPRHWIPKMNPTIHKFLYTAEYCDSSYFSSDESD
Test: Assay for TDO2 enzymatic activity determination
Format: biochemical
Set-up: made in house
Details: human recombinant TDO2, L-Trp 1 mM, room temperature, one hour, kynurenine absorbance at 480 nm

Compound: CS(=O)(=O)N1CCC(n2cc(-c3c[nH]c4cc(F)ccc34)cn2)CC1 [Compound 106]
IC50: 1 to 10 µM
//
Compound: O=C(CCO)N1CCC(n2cc(-c3c[nH]c4cc(F)ccc34)cn2)CC1 [Compound 104]
IC50: 1 to 10 µM
//
Compound: NC(=O)C(O)Cn1cc(-c2c[nH]c3cc(F)ccc23)cn1 (stereo not drawn) [Compound 37]
IC50: 1 to 10 µM
//
Compound: Cn1ncc(-c2c[nH]c3ccccc23)c1C(F)(F)F [Compound 77]
IC50: 10 to 100 µM
//
Compound: Cc1c(-c2c[nH]c3cc(F)ccc23)cnn1CC1CCNCC1 [Compound 57]
IC50: 1 to 10 µM
//
Compound: CC(=O)N1CCC(n2ncc(-c3c[nH]c4cc(F)ccc34)c2C)CC1 [Compound 95]
IC50: 1 to 10 µM
//
Compound: O=S(=O)(C1CC1)N1CCC(n2cc(-c3c[nH]c4cc(F)ccc34)cn2)CC1 [Compound 97]
IC50: 1 to 10 µM
//
Compound: CCS(=O)(=O)N1CCC(n2cc(-c3c[nH]c4cc(F)ccc34)cn2)CC1 [Compound 98]
IC50: 1 to 10 µM
//
Compound: CS(=O)(=O)CCCC(=O)N1CCC(n2cc(-c3c[nH]c4cc(F)ccc34)cn2)CC1 [Compound 103]
IC50: 10 to 100 µM
//
Compound: CC(C)S(=O)(=O)N1CCC(n2cc(-c3c[nH]c4cc(F)ccc34)cn2)CC1 [Compound 99]
IC50: 1 to 10 µM
//
Compound: Cc1nn(CCC(N)=O)c(C)c1-c1c[nH]c2cc(F)ccc12 [Compound 9]
IC50: 1 to 10 µM
//
Compound: OC1(Cn2cc(-c3c[nH]c4cc(F)ccc34)cn2)CCOCC1 [Compound 59]
IC50: 1 to 10 µM
//
Compound: Cc1nn(CC2CCNCC2)c(C)c1-c1c[nH]c2cc(F)ccc12 [Compound 55]
IC50: 10 to 100 µM
//
Compound: O=S(=O)(N1CCC(n2cc(-c3c[nH]c4cc(F)ccc34)cn2)CC1)C(F)(F)F [Compound 92]
IC50: 1 to 10 µM
//
Compound: COCCS(=O)(=O)N1CCC(n2cc(-c3c[nH]c4cc(F)ccc34)cn2)CC1 [Compound 96]
IC50: 1 to 10 µM
//
Compound: NC(=O)CCn1cc(-c2c[nH]c3cc(F)c(F)cc23)cn1 [Compound 8]
IC50: 1 to 10 µM
//
Compound: CC(=O)N1CCC(n2cc(-c3c[nH]c4cc(F)ccc34)c(C)n2)CC1 [Compound 94]
IC50: 10 to 100 µM
//
Compound: Cc1nn(CCS(C)(=O)=O)c(C)c1-c1c[nH]c2cc(F)ccc12 [Compound 33]
IC50: 10 to 100 µM

====

Target: human TDO2 (Homo sapiens)
Assay: Cellular assay for TDO2 activity, hTDO2-overexpressing P815 cells
Type: cell-based
Design: expressed in transfected cells; host or cells: murine mastocytoma P815 cells
Settings: murine mastocytoma P815 cells overexpressing hTDO2, overnight incubation, kynurenine absorbance at 480 nm
pIC50: −log10 of the molar value.
Recorded measurements of pIC50, one per entry

Compound: Cc1nn(C)cc1-c1c[nH]c2cc(F)ccc12
pIC50: > 6.00
//
Compound: NC(=O)[C@H]1CC[C@H](n2cc(-c3c[nH]c4cc(F)ccc34)cn2)CC1
pIC50: 5.00 to 6.00
//
Compound: CS(=O)(=O)CCC(=O)N1CCC(n2cc(-c3c[nH]c4cc(F)ccc34)cn2)CC1
pIC50: > 6.00
//
Compound: OC1CCC(n2cc(-c3c[nH]c4cc(F)ccc34)cn2)CC1 (centres unmarked)
pIC50: > 6.00
//
Compound: Cn1ncc(-c2c[nH]c3ccccc23)c1C(F)(F)F
pIC50: 5.00 to 6.00

====

compounds and their reported melting point

Compound: CC(=O)NCCn1cc(-c2c[nH]c3cc(F)ccc23)cn1
melting point: 179.5 to 180.8 °C

Compound: O=S1(=O)CCC(Cn2cc(-c3c[nH]c4cc(F)ccc34)cn2)CC1
melting point: 193.1 to 194.1 °C

Compound: CS(=O)(=O)CCn1cc(-c2c[nH]c3cc(F)ccc23)cn1
melting point: 153.3 to 155.1 °C

Compound: CNCCn1cc(-c2c[nH]c3cc(F)ccc23)cn1
melting point: 94.2 to 95.2 °C

Compound: CC(C)(C)C(=O)N1CCC(n2cc(-c3c[nH]c4cc(F)ccc34)cn2)CC1
melting point: 231 to 232 °C

Compound: Fc1ccc2c(-c3cnn(C4CCNCC4)c3)c[nH]c2c1
melting point: 240.1 to 241.8 °C

Compound: CC(Cn1cc(-c2c[nH]c3cc(F)ccc23)cn1)C(N)=O (single isomer, unassigned)
melting point: 184.5 to 185.5 °C

Compound: O=C(CO)N1CCC(n2cc(-c3c[nH]c4cc(F)ccc34)cn2)CC1
melting point: 99.9 to 102.1 °C

Compound: CC(=O)N1CCC(n2cc(-c3c[nH]c4cc(F)ccc34)cn2)CC1
melting point: 183.2 to 184.5 °C

Compound: CN1CCC(n2cc(-c3c[nH]c4cc(F)ccc34)cn2)CC1
melting point: 222.8 to 223.7 °C
